tested on: SARS-COV-2 Scotland variant (linage: B.1.222); test: microbe, parasite or virus in culture; assay type: cell-based; conditions: Severe acute respiratory syndrome coronavirus 2, Calu-3
IC50 overview

>  <molecule>
O=C1Nc2cc(C(F)(F)F)ccc2Oc2ccsc21 [formula (IIa)]

>  <IC50 (nM)>
1390

$$$$
>  <molecule>
CN1C(=O)c2ccccc2[S+]([O-])c2cc([N+](=O)[O-])ccc2S1(=O)=O (centres unmarked) [formula (Ia)]

>  <IC50 (nM)>
2640

$$$$
